Each recorded value in this set is attributed to patent US6887876B2.

molecular target: μ-opioid receptor (Rattus norvegicus, UniProt P33535); assay: Rat brain μ-opioid receptor binding assay ([3H]DAMGO); conditions: rat forebrain preparation; [3H]DAMGO; 25° C.; read-out: μ-Opioid Receptor Binding (Ki nM)
Sequence (P33535 whole entry): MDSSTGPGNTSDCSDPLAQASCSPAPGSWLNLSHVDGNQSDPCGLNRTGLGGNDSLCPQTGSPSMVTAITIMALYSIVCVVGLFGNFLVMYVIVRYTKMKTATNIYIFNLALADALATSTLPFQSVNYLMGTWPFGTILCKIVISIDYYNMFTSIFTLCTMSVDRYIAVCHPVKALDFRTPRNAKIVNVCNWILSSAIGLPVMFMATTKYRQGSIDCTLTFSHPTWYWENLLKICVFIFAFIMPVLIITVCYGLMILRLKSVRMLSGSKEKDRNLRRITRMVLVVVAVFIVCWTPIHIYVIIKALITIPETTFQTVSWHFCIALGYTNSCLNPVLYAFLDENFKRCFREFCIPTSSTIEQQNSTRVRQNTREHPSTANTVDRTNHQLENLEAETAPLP
I'd be grateful if you could share measured Ki for these entries.

`CCN1CCN(C(=Nc2cccc(Br)c2)c2ccc(C(=O)OC)cc2)CC1` has a reported Ki of > 10000 nM

So for `CCN1CCN(C(=Nc2cc(Cl)cc(Cl)c2)c2ccc(C(=O)N(CC)CC)cc2)CC1` , the logged Ki turned out to be > 10000 nM

The value of Ki measured for the compound `CCN1CCN(C(=Nc2cccc(Cl)c2)c2ccc(C(=O)OC)cc2)CC1` turned out to be > 10000 nM
